Hello, the source for this data is patent US20250051277A1, in case you need it.

Condition Label: 1 h, 10 μM
Observation Type: Prodrug (%) remaining, Human Plasma
Note: unit % is implicit; provide only the numeric part.

>  <Smiles Structure>
CCCC(CCC)C(=O)OC1=C[C@@H]2N(C)CC[C@]2(c2ccc(OC)c(OC)c2)CC1

>  <Prodrug (%) remaining, Human Plasma>
96.9

$$$$

Query: Data request, read-out Prodrug (%) remaining, Human Plasma, for CCC(C)(C)C(=O)OC1=C[C@@H]2N(C)CC[C@]2(c2ccc(OC)c(OC)c2)CC1
Result: 69.1

Query: Now this one: COc1ccc([C@@]23CCC(OC(=O)CCN)=C[C@@H]2N(C)CC3)cc1OC
Result: 0.1

Query: Now this one: CCC(CC)C(=O)OC1=C[C@@H]2N(C)CC[C@]2(c2ccc(OC)c(OC)c2)CC1
Result: 79.2

* * *

Type: physicochemical
Condition Label: SGF with pepsin, pH 1.5, 37° C., 0.5 mM; time 1 h
Reported values of Condition 1 Conversion (%) for individual entries
Note: unit % is implicit; provide only the numeric part.

>  <Compound>
COc1ccc([C@]23CCN(C)[C@H]2CC2(CC3)OCC(C(=O)O)O2)cc1OC (some centres unmarked) [Compound 214]

>  <Condition 1 Conversion (%)>
0

$$$$
>  <Compound>
COc1ccc([C@@]23CCN(C)[C@@H]2CC2(CC3)SCCS2)cc1OC [Compound 046]

>  <Condition 1 Conversion (%)>
0

$$$$
>  <Compound>
COc1ccc([C@@]23CCC(=NNC(=O)c4ccc(Cl)cc4)C[C@@H]2N(C)CC3)cc1OC [Compound 240]

>  <Condition 1 Conversion (%)>
100

$$$$

Switching to the query record.
Query: Data request, read-out Condition 1 Conversion (%), for COc1ccc([C@@]23CC/C(=N/OC45CC6CC(CC(C6)C4)C5)C[C@@H]2N(C)CC3)cc1OC [Compound 274]
Result: 0

* * *

Reported values of Condition 1 Conversion (%) for individual entries
Type: physicochemical
Condition Label: SGF with pepsin, pH 1.5, 37° C., 0.5 mM; time 4 h
Note: unit % is implicit; provide only the numeric part.

Examples with their reported Condition 1 Conversion (%) follow.
>  <Molecule>
COc1ccc([C@@]23CC/C(=N\NC(=O)C4(C(=O)O)CC4)C[C@@H]2N(C)CC3)cc1OC [Compound 243]

>  <Condition 1 Conversion (%)>
100

$$$$
>  <Molecule>
COc1ccc([C@@]23CCC(OC(C)=O)=C[C@@H]2N(C)CC3)cc1OC [Compound 026]

>  <Condition 1 Conversion (%)>
0

$$$$
>  <Molecule>
CCCC1CO[C@@]2(CC[C@@]3(c4ccc(OC)c(OC)c4)CCN(C)C3C2)O1 (stereo partly drawn) [Compound 238]

>  <Condition 1 Conversion (%)>
0

$$$$

Query: Data request, read-out Condition 1 Conversion (%), for COc1ccc([C@@]23CCC(=NNC(=O)C(=O)O)C[C@@H]2N(C)CC3)cc1OC [Compound 241]
Result: 100

Query: Now this one: COc1ccc([C@@]23CCC(=NNC(=O)Nc4cccnc4)C[C@@H]2N(C)CC3)cc1OC [Compound 299]
Result: 100

Query: Now this one: COc1ccc([C@@]23CCC(=NOCCC45CC6CC(CC(C6)C4)C5)C[C@@H]2N(C)CC3)cc1OC [Compound 276]
Result: 5.48
